Below is a list of entries, each paired with its recorded switch fluorescence ratio value.
- System: ATP;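 note: ATP exposure 15 min at 22 °C before imaging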
- assay-remarks: switch fluorescence ratio, 500 uM ATP over buffer (Cy3 cluster intensity, sum of 5 cycles each) (fold (ratio)); higher = stronger signal-on switching upon ATP binding; sequences stand for … in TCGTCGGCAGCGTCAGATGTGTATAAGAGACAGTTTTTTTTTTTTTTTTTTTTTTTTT…TC
- cond: aptamer strand: ATP DNA aptamer (quencher-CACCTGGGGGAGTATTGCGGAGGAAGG + anchor), 100 nM annealed; ATP concentration: 500 uM
Simply state the number, no unit and no words.

Solved cases below.
GGTTTATGTT	1
ATAGGCTGTT	0.986

Need switch fluorescence ratio of AGGGGAGTAG , thanks.
0.99

Same again, this time with AAAAATATGC
0.996

// repeat for GACGGGGTTA and report
1.02

Try GCTGTCAATC next.
1.11

Next sequence up: ACCCGCACTT
1.82

Would you kindly repeat that for CTAGAGGCTG ?
1.03

Check AGGCGGATGG too.
0.985

---

- Tested on: ATP;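 note: ATP exposure 15 min at 22 °C before imaging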
- assay-remarks: switch fluorescence ratio, 500 uM ATP over buffer (Cy3 cluster intensity, sum of 5 cycles each) (fold (ratio)); higher = stronger signal-on switching upon ATP binding; sequences stand for … in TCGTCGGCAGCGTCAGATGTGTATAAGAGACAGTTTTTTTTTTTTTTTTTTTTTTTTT…TC
- cond: aptamer strand: ATP DNA aptamer (quencher-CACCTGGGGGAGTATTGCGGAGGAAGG + anchor), 100 nM annealed; ATP concentration: 500 uM
Label scheme for switch fluorescence ratio: lower than 1 is no, 1 and above is yes.

AAACCCGGGA	yes

Determine whether this sequence has switch fluorescence ratio no lower than 1: ATTTTCGTTT
no

Now this one: GCTGTACGCG
yes

Now the same for GGGAGAATGC
no

Try the sequence AACAGTAGGG
yes

Would you mind doing ATGAGTACGG as well?
yes

---

Item-by-item account of switch fluorescence ratio
- Tested on: ATP;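 note: ATP exposure 15 min at 22 °C before imaging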
- assay-remarks: switch fluorescence ratio, 500 uM ATP over buffer (Cy3 cluster intensity, sum of 5 cycles each) (fold (ratio)); higher = stronger signal-on switching upon ATP binding; sequences stand for … in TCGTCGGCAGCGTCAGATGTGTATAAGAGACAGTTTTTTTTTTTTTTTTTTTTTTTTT…TC
- cond: aptamer strand: ATP DNA aptamer (quencher-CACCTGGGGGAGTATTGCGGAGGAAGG + anchor), 100 nM annealed; ATP concentration: 500 uM
# answer = number (no unit)

Known switch fluorescence ratio results, listed for orientation:
TAAGTGTTGC	1
CATTTGCGGA	0.981
ATGGGCCTGG	0.979

Form field - read-out: switch fluorescence ratio; system: ATP; submitted item: GATTAAATTA;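 note: ATP exposure 15 min at 22 °C before imaging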
1.01

Queued: AGGGGGGCGC
0.993

Now this one: GTTTTGGTAC
1.01

What do you get for CGGAATGTGT ?
1

Try this sequence too: TATACGAATT
1.02

---

- Test system: ATP;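 note: ATP exposure 15 min at 22 °C before imaging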
- assay-remarks: switch fluorescence ratio, 500 uM ATP over buffer (Cy3 cluster intensity, sum of 5 cycles each) (fold (ratio)); higher = stronger signal-on switching upon ATP binding; sequences stand for … in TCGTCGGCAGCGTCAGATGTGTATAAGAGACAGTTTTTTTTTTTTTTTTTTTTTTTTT…TC
- cond: aptamer strand: ATP DNA aptamer (quencher-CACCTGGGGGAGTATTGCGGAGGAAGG + anchor), 100 nM annealed; ATP concentration: 500 uM
Known switch fluorescence ratio of a selection of sequences
Quick one: just the number, no unit, thanks!

Record excerpt, results attached:
GTTGTTATTG	1.01
TTCGGAGGCT	1.23
TCGATTCAGT	0.98
GCATAATTTA	0.99

Which switch fluorescence ratio is reported for this sequence? TTAAAACTAT
1.01

Item: GATTGCGCAT
1

And for GATACTCGCG ?
1.03

Next up: CGAGGGAGCA
1.01

---

Overview of recorded switch fluorescence ratio for various sequences
- System: ATP;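 note: ATP exposure 15 min at 22 °C before imaging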
- assay-remarks: switch fluorescence ratio, 500 uM ATP over buffer (Cy3 cluster intensity, sum of 5 cycles each) (fold (ratio)); higher = stronger signal-on switching upon ATP binding; sequences stand for … in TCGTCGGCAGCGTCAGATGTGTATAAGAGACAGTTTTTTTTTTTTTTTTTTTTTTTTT…TC
- cond: aptamer strand: ATP DNA aptamer (quencher-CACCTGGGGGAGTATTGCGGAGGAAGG + anchor), 100 nM annealed; ATP concentration: 500 uM
// response body must contain only the number

Worked examples follow.
GCTGGTTTCG	1.03
AGAGAAGGGT	0.996
TGTGGAAGGT	1
TATTAATTCG	1.01
GCAAATAGTT	0.993
GCCTTATTTT	1
CTGAGCTGTG	0.968
CAGCGCTGGA	0.996
TTCGAGTCGG	0.967
CGGGGATGTT	0.999

Form field: reported switch fluorescence ratio of TCCGGCGTAT
1.13

Same for TCCAGACTCT
1.02

Also TCGTGTGGTT , if possible.
0.978

Okay, and AAGTTTGTT ?
0.983

Request: GCATTGAGGG
1.04

Queued: GCAGAGGTGG
1.05

---

- System: ATP;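 note: ATP exposure 15 min at 22 °C before imaging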
- assay-remarks: switch fluorescence ratio, 500 uM ATP over buffer (Cy3 cluster intensity, sum of 5 cycles each) (fold (ratio)); higher = stronger signal-on switching upon ATP binding; sequences stand for … in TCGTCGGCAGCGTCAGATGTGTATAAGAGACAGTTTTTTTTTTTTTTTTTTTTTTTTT…TC
- cond: aptamer strand: ATP DNA aptamer (quencher-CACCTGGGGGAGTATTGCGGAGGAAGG + anchor), 100 nM annealed; ATP concentration: 500 uM
Recorded switch fluorescence ratio values for a group of sequences are listed next.
Just the number, please, no unit after it.

Take a look at these entries with their results.
TATAGGTTT	1.01
ATGTTATTA	0.975
AAGGTTGACC	1.01
TAATAGTTAC	1.01
GAGGGGGGTA	0.989

Report switch fluorescence ratio for GAATGTATCG tested on ATP.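 Note: ATP exposure 15 min at 22 °C before imaging.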
0.981

Next sequence: GATCATAATG
1.01

// same read-out, input: TATTTCTGAT
0.988

Now give it for TTCATAGGTT too.
1.02

Can you handle GAGGGACGGC next?
0.999

Here is the next sequence: CAGGGTGTGC
1.01

# iterate: GTTAGCAAGG
1.08

---

Readings of switch fluorescence ratio for the listed sequences
- System: ATP;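 note: ATP exposure 15 min at 22 °C before imaging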
- assay-remarks: switch fluorescence ratio, 500 uM ATP over buffer (Cy3 cluster intensity, sum of 5 cycles each) (fold (ratio)); higher = stronger signal-on switching upon ATP binding; sequences stand for … in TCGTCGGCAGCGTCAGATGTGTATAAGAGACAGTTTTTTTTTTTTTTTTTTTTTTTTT…TC
- cond: aptamer strand: ATP DNA aptamer (quencher-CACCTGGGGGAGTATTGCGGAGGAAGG + anchor), 100 nM annealed; ATP concentration: 500 uM

Field: example entries. Status: answers known.
TACAGAACGC	1.24
CGCCTCGAGG	0.979
CGTTAAACGT	1.01

Look at this sequence and give its reported switch fluorescence ratio. TTGGTAAAAA
1.25

Entry GAGACACATA please
1.09

Can you handle GGGTATACCG next?
1.02

AGTGGGGCCA , same question.
1.03

Consider next the sequence TGATCGGGGG in the same way.
0.982

---

- Tested on: ATP;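 note: ATP exposure 15 min at 22 °C before imaging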
- assay-remarks: switch fluorescence ratio, 500 uM ATP over buffer (Cy3 cluster intensity, sum of 5 cycles each) (fold (ratio)); higher = stronger signal-on switching upon ATP binding; sequences stand for … in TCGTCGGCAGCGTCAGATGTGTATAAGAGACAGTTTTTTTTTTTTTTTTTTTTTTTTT…TC
- cond: aptamer strand: ATP DNA aptamer (quencher-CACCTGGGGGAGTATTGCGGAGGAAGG + anchor), 100 nM annealed; ATP concentration: 500 uM
switch fluorescence ratio values by entry

CTGTTCTGGC	0.962
GGAGCTTTGT	0.98
TCTCGTTTT	0.979
GTTTTTGGTA	0.986
TTCAGCTGGG	0.998

Report switch fluorescence ratio for TTCGTGGTGT please.
1.03

Same lookup for GGCTGTAGAC , please.
1.01

Also, AATGGCAATT please.
0.995

Another sequence to check: CCTGGACTCG
1.02

---

- Tested on: ATP;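 note: ATP exposure 15 min at 22 °C before imaging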
- assay-remarks: switch fluorescence ratio, 500 uM ATP over buffer (Cy3 cluster intensity, sum of 5 cycles each) (fold (ratio)); higher = stronger signal-on switching upon ATP binding; sequences stand for … in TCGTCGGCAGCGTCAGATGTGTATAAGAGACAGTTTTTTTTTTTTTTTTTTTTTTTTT…TC
- cond: aptamer strand: ATP DNA aptamer (quencher-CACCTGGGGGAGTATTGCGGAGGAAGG + anchor), 100 nM annealed; ATP concentration: 500 uM
Outcome: rule met for switch fluorescence ratio of at least 1; rule not met for anything lower.

GACTGAATAC	rule met
GCCAACAGTG	rule met
ACGCTGGCGA	rule met
AAAATGTAGG	rule not met
ATCAATGTTC	rule met

Exam item: decide whether the reported switch fluorescence ratio for TTTTTATGGA is at least 1.
rule met

Would you mind doing GCGCGGCTTC as well?
rule met

Same read-out for TCGGTTGTG ?
rule not met

Reference for the values: the supplement of paper PMC10126150
